# measurement.protocol: blockers of DNA damage checkpoint Chk1 activation – imaging, HeLa, hydroxyurea, phospho-Chk1 antibody, percent positive cells, primary screen (AID 1186)
# assay.conditions: hydroxyurea-induced phospho-Chk1 immunofluorescence imaging, higher = more signal
z-score by entry:
Simply state the number, no unit and no words.

{"columns": ["substance.smiles", "measurement.kind", "test.result"],
 "data": [
  ["O=C(NCc1ccccc1)[C@@H]1c2ccccc2C(=O)N(Cc2cc(F)cc(C(F)(F)F)c2)[C@H]1c1ccc(CO)cc1", "z-score", -1.07],
  ["COc1ccc([Si](C)(C)[C@H]2[C@H](CC(=O)N(CCO)Cc3ccccc3)O[C@@]3(C(=O)N(Cc4cccc(N5C(=O)c6cccc7cccc5c67)c4)c4ccccc43)[C@@H]2C)cc1", "z-score", -1.31],
  ["O=c1cccc(-c2ccc3ccccc3c2)o1", "z-score", -0.319]
]}

Would you kindly look at the next entry?
Supply z-score value. Item: `COCCOC(=O)N1C(=O)[C@@]2(c3cc(C#CC4=CCCCC4)ccc31)[C@H](C(=O)N1CCN(c3ncccn3)CC1)[C@H]1C(=O)O[C@H](c3ccccc3)[C@H](c3ccccc3)N1[C@@H]2c1ccc(OCCO)cc1`
0.0924

---

# system.tested: NADPH oxidase 2 (Homo sapiens) (UniProt P04839)
# Sequence (P04839 whole entry, looked up): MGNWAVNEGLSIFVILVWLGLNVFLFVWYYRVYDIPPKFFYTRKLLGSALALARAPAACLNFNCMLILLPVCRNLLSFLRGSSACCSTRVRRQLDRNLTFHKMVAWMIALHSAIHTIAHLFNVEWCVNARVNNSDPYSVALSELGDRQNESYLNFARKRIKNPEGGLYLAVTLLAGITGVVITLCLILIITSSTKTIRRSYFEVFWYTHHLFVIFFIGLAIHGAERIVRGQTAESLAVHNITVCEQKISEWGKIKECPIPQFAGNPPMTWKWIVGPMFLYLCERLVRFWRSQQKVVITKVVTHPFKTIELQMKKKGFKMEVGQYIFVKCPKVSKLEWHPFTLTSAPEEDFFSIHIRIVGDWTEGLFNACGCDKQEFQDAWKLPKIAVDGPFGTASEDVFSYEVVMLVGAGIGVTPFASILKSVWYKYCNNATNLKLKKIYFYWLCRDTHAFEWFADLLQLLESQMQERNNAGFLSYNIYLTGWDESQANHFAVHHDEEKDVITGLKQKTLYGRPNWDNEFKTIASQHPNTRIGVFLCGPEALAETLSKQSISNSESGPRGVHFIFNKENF
# measurement.protocol: compounds shifting NOX2 Amplex Red fluorescence – cell-based, HEK293-NOX2, PMA-stimulated, NOX inhibitor project, primary screen (AID 1159); note: test concentration not given here
# assay.conditions: 45 min, higher = more signal, called active from +8 up or from −8 down
Assign class by z-score: not lower than -0.3 means met; lower than -0.3 means not met.

Worked cases, answers included:
{"columns": ["compound", "classification"],
 "data": [
  ["COc1ccc([Si](C)(C)[C@@H]2[C@@H](CCO)O[C@]3(C(=O)N(Cc4ccccc4)c4ccc(N(C=O)c5ccccc5)cc43)[C@H]2C)cc1", "met"],
  ["O=P(NCC1(CC2(c3ccccc3)CO2)CC1)(c1ccccc1)c1ccccc1 (stereo not given)", "met"]
]}

Tell me whether z-score is at least -0.3 here: CC(C)(C)OC(=O)CC[C@@]1(C(=O)NCC(O)CO)N=C(c2ccc(OCCCO)cc2)O[C@@H]1c1ccccc1 (stereo not given in full)
met

Tell me whether z-score is at least -0.3 here: CC(=O)n1cc(C(O)C2C=CC3C(=O)N(c4ccccc4)C(=O)C3N2Nc2ccc(C#N)cc2)c2ccccc21 (stereo not given)
not met

Tell me whether z-score is at least -0.3 here: `COCCOC(=O)N1C(=O)[C@@]2(c3cc(C#CCCO)ccc31)[C@H](C(=O)NC[C@H](O)c1ccccc1)[C@H]1C(=O)O[C@H](c3ccccc3)[C@H](c3ccccc3)N1[C@@H]2c1ccc(OCCO)cc1`
met

Tell me whether z-score is at least -0.3 here: `Cc1c(NC(=O)/C(C#N)=C/C=C/c2ccccc2)c(=O)n(-c2ccccc2)n1C`
not met

---

# measurement.protocol: growth of efflux-deficient E. coli DRC39 – strain DRC39, OD650, 48 h, E. coli filamentation inducers, primary screen (AID 1179);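 note: screen aims at cell division blockers that make cells filament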
# assay.conditions: E. coli DRC39 delta-acrAB growth, higher = more signal, called active from +8 up or from −8 down
z-score by entry:
Simply state the number, no unit and no words.

Here are 10 compounds together with their reported answers.
{"columns": ["compound", "z-score"],
 "data": [
  ["Cc1ccc(S[C@]2(C(=O)NCC(F)(F)F)CC(=O)N(C3Cc4ccccc4C3)[C@@H]2c2ccc(CO)cc2I)cc1", 0.503],
  ["Cc1ccc(S[C@]2(C(=O)NCCN3CCOCC3)CC(=O)N(C3CCCCC3)[C@@H]2c2ccc(CO)cc2)cc1", -0.483],
  ["Cc1ccc([C@H]2C(C(=O)O)=C[C@@H](C(C)C)N2S(=O)(=O)c2ccc(C)cc2)cc1", 0.0184],
  ["COc1cc2c(cc1O)C(c1ccc(CN3CCCC3)cc1)N(Cc1sc3ccccc3c1Cl)CC2 (centres undefined)", 0.25],
  ["NC(=O)NCC#Cc1ccc2c(c1)[C@]1(C(=O)N2)[C@H](c2ccc(O)cc2)N2[C@H](c3ccccc3)[C@H](c3ccccc3)OC(=O)[C@H]2[C@@H]1C(=O)N1CCN(c2ncccn2)CC1", 0.0093],
  ["O=C1O[C@H](c2ccccc2)[C@H](c2ccccc2)N2[C@H]1[C@@H](C(=O)N1CCCCCCC1)[C@]1(C(=O)Nc3ccc(C#CC4=CCCCC4)cc31)[C@H]2c1ccc(O)cc1", -1.53],
  ["COCCCNC(=O)[C@]1(Cc2ccccc2N=[N+]=[N-])N=C(c2ccc(OCCCO)cc2)O[C@@H]1c1ccccc1CN=[N+]=[N-]", 0.499],
  ["CCCNC(=O)[C@@]1(C)c2ccccc2C(=O)N(Cc2ccc(OC(F)(F)F)cc2)[C@H]1c1ccc(CO)cc1", 1.28],
  ["O=C1O[C@@H](c2ccccc2)[C@@H](c2ccccc2)N2[C@@H](c3ccc(O)cc3)[C@]3(C(=O)Nc4ccc(C#CCCO)cc43)[C@@H](C(=O)O)[C@H]12", 0.67],
  ["[N-]=[N+]=NCc1ccccc1C[C@]1(C(=O)NCC(O)CO)COC(c2ccc(OCCCO)cc2)=N1 (some centres undefined)", 0.0564]
]}

Supply z-score value. Item: `CCCNC(=O)[C@@]1(C)c2ccccc2C(=O)N(C(C)C)[C@H]1c1ccc(CO)cc1`
-0.516

Supply z-score value. Item: `COc1ccc(C(=O)Nc2cccc(CN3C(=O)[C@@]4(O[C@@H](CC(=O)N5Cc6ccccc6C[C@H]5CO)[C@H]([Si](C)(C)c5ccc(OC)cc5)[C@H]4C)c4ccccc43)c2)cc1`
0.621

Supply z-score value. Item: `C=CCN1C(=O)[C@@]2(O[C@@H](CCO)[C@H]([Si](C)(C)c3ccc(OC)cc3)[C@H]2C)c2cc(NC(C)=O)ccc21`
0.121

Supply z-score value. Item: C=CCC(OC(C)=O)[C@@H]1[C@@H](N(Cc2cc3ccccc3o2)C(=O)c2ccc(C)cc2)c2cc(OCCCO)ccc2N1C(=O)c1ccc(-c2ccccc2)cc1 (some centres undefined)
1.35

Where do the numbers come from? From PubChem BioAssay.
